I'd appreciate it if you could supply solvation free energy, 298 K values for the items below.
experimental-protocol: solvent given as SMILES
recorded-conditions: in CCCCCCCO
Write the quantity with the unit trailing the number.

Prompt: Name the recorded solvation free energy, 298 K for `CC(=O)Oc1ccccc1C(=O)O` .
Completion: -13.1 kcal/mol

Prompt: Request the reported solvation free energy, 298 K associated with `c1ccc2c(c1)Cc1ccccc1O2`
Completion: -9.66 kcal/mol

Prompt: What measured solvation free energy, 298 K goes with `O=[N+]([O-])c1cc(Cl)ccc1Cl` ?
Completion: -8.19 kcal/mol

Prompt: So what does the record say about solvation free energy, 298 K for `O=C1c2ccccc2C(=O)c2c(Cl)cccc21` ?
Completion: -13.1 kcal/mol

Prompt: # query: solvation free energy, 298 K of entry `Cc1ccccc1C(=O)O`
Completion: -8.81 kcal/mol

Prompt: What measured solvation free energy, 298 K goes with `CCCC#N` ?
Completion: -4.32 kcal/mol

Prompt: Fill in the blank: the reported solvation free energy, 298 K of `C=C` is ____.
Completion: -0.43 kcal/mol

Prompt: Need solvation free energy, 298 K, item CC(C(=O)O)c1ccc(-c2ccccc2)c(F)c1 (stereo unspecified)
Completion: -15.6 kcal/mol

Prompt: Please look up its solvation free energy, 298 K: `O=C(O)c1cccc(Cl)c1`
Completion: -10.5 kcal/mol

Prompt: # solvation free energy, 298 K lookup, item `CC(=O)Nc1ccc(O)cc1`
Completion: -15.3 kcal/mol

Prompt: Can you look up the measured solvation free energy, 298 K of `c1ccc2c(c1)-c1cccc3cccc-2c13` for me?
Completion: -11.9 kcal/mol

Prompt: Need solvation free energy, 298 K of `FS(F)(F)(F)(F)F` , thanks.
Completion: 0.37 kcal/mol

Prompt: Look up solvation free energy, 298 K for this compound: `c1ccccc1`
Completion: -3.83 kcal/mol

Prompt: Endpoint output: solvation free energy, 298 K of `c1ccc2c(c1)Nc1ccccc1S2` . Value?
Completion: -13.1 kcal/mol

Prompt: Given the compound `C1CCCCC1` , what is its reported solvation free energy, 298 K?
Completion: -3.72 kcal/mol

Prompt: Returns the measured solvation free energy, 298 K for the input compound. Input: CC(C)Cc1ccc(C(C)C(=O)O)cc1 (stereo unspecified)
Completion: -13.1 kcal/mol

###

experimental-protocol: solvent given as SMILES
recorded-conditions: in CCCOCCC
solvation free energy, 298 K less than -4 kcal/mol is Yes; solvation free energy, 298 K greater than or equal to -4 kcal/mol is No.

Prompt: Decide: solvation free energy, 298 K of `ClC(Cl)(Cl)Cl` strictly below -4 kcal/mol?
Completion: Yes

Prompt: solvation free energy, 298 K under -4 kcal/mol? Item: `C1CCCCC1`
Completion: Yes

Prompt: In the record for `CCCO` , is solvation free energy, 298 K less than -4 kcal/mol?
Completion: Yes

Prompt: Please let me know if `ClCCl` shows solvation free energy, 298 K below -4 kcal/mol.
Completion: No

Prompt: Find out if reported solvation free energy, 298 K for `O=O` is less than -4 kcal/mol
Completion: No

Prompt: API: query returns whether the compound falls strictly under -4 kcal/mol in solvation free energy, 298 K. Query: `CC(C)CO`
Completion: Yes

###

Record form. Attribute: solvation free energy, 298 K. Fill in for each entry.
experimental-protocol: solvent given as SMILES
recorded-conditions: in OCCS

Prompt: So what does the record say about solvation free energy, 298 K for `Cc1ccccc1` ?
Completion: -4.12 kcal/mol

Prompt: Quick one: solvation free energy, 298 K of `C1CCCCC1` ?
Completion: -2.58 kcal/mol

Prompt: Quick one: solvation free energy, 298 K for `CC(C)CC(C)(C)C` ?
Completion: -2.36 kcal/mol

Prompt: Given the compound `c1ccccc1` , what is its reported solvation free energy, 298 K?
Completion: -3.62 kcal/mol

###

experimental-protocol: solvent given as SMILES
recorded-conditions: in C1COCCO1
Classify as follows. Reported solvation free energy, 298 K greater than or equal to -4 kcal/mol: y. Reported solvation free energy, 298 K below: n.

Prompt: Decide: is the reported value of solvation free energy, 298 K for `O=O` equal to or greater than -4 kcal/mol?
Completion: y

Prompt: Would you say `ClCCCl` shows solvation free energy, 298 K at minimum -4 kcal/mol?
Completion: n

Prompt: Decide: solvation free energy, 298 K of `c1ccc2c(c1)-c1cccc3cccc-2c13` >= -4 kcal/mol?
Completion: n

Prompt: # bool: solvation free energy, 298 K of `c1ccccc1` >= -4 kcal/mol
Completion: n

Prompt: Dear colleague, could you confirm whether `c1ccc2c(c1)Nc1ccccc1S2` has solvation free energy, 298 K at or above -4 kcal/mol?
Completion: n

Prompt: Hi, just wondering whether `O=S=O` shows solvation free energy, 298 K of -4 kcal/mol or higher.
Completion: y

Prompt: Form field: solvation free energy, 298 K at least -4 kcal/mol? Entry: `C1CCCCC1`
Completion: y

Prompt: Tell me whether solvation free energy, 298 K is at least -4 kcal/mol here: `ClC(Cl)(Cl)Cl`
Completion: n

###

experimental-protocol: solvent given as SMILES
recorded-conditions: in CO
Hi there, I'd appreciate the recorded solvation free energy, 298 K for every entry that follows.
Give the quantity in kcal/mol, number only.

Prompt: Query: solvation free energy, 298 K; subject: `ClCCl`
Completion: -3.49

Prompt: Given `CN(C)C(=O)Nc1ccc(Cl)cc1` , state its recorded solvation free energy, 298 K.
Completion: -13.7

Prompt: Using the record for `c1ccc2c(c1)Cc1ccccc1O2` , report its solvation free energy, 298 K.
Completion: -9.2

Prompt: Reported solvation free energy, 298 K, compound `CC(C)(C)c1ccccc1` : ____
Completion: -5.52

Prompt: Can you share its solvation free energy, 298 K? I mean this compound: `COC(C)=O`
Completion: -3.96

Prompt: Returns the measured solvation free energy, 298 K for the input compound. Input: `CCCCOC(C)=O`
Completion: -5.36

Prompt: # lookup: solvation free energy, 298 K of `O=C(C(=O)c1ccccc1)c1ccccc1`
Completion: -11.2

Prompt: If you can, please state the reported solvation free energy, 298 K value of `c1cc2c3c(cccc3c1)CC2` .
Completion: -8.21

Prompt: Field request: solvation free energy, 298 K | item: `CNC`
Completion: -3.51

Prompt: Value lookup for solvation free energy, 298 K; key = `CC(C)(C)C`
Completion: -1.91

Prompt: Data request, read-out solvation free energy, 298 K, for `C1CCCCC1`
Completion: -3.25

Prompt: Requested read-out: solvation free energy, 298 K. Entry: `CCCCCC(C)=O`
Completion: -5.98

Prompt: Look up solvation free energy, 298 K for this compound: `CC(C)(C)Cl`
Completion: -3.11

Prompt: Which solvation free energy, 298 K is reported for this compound? `O=c1c2ccccc2sc2ccccc12`
Completion: -11.5

Prompt: Which measured solvation free energy, 298 K value corresponds to `CCCC(C)C` ?
Completion: -2.68

Prompt: Report solvation free energy, 298 K for `CCC(=O)CC` please.
Completion: -4.96

Prompt: What solvation free energy, 298 K value was documented for this compound, `Cc1ccccc1` ?
Completion: -4.35

Prompt: Name the reported solvation free energy, 298 K value associated with the compound `C=C`
Completion: -0.51

Prompt: Report solvation free energy, 298 K for `CCC(CC)(CC)CC` please.
Completion: -4.3

###

experimental-protocol: solvent given as SMILES
recorded-conditions: in OCCOCCO
Label scheme, based on solvation free energy, 298 K: low band: < -4 kcal/mol; middle band: ≥ -4 kcal/mol and < -2 kcal/mol; high band: ≥ -2 kcal/mol

Prompt: Note: place this compound into its band. Item: `C=CCCC`
Completion: high band

Prompt: # bin lookup: classify `CCCCc1ccccc1` by its solvation free energy, 298 K
Completion: low band

Prompt: Category of `COC(C)=O` , please.
Completion: middle band

Prompt: Assign a category based on measured solvation free energy, 298 K for `C=CCCCCCCCC` and give only the class name.
Completion: middle band

Prompt: Which category fits this record: `Cc1ccc(C)cc1`
Completion: low band

Prompt: Exercise: read the entry `O=C=O` and state which class it falls under.
Completion: high band

Prompt: Classify this compound: `C1CCCCC1`
Completion: middle band

Prompt: Lab note: which band did `S` land in?
Completion: high band

Prompt: Could you tell me which band `CCCCCCc1cccc2ccccc12` belongs to?
Completion: low band

Prompt: Place this compound in its band: `C=C(C)C(=C)C`
Completion: middle band

Prompt: Dear colleague, I would appreciate it if you could identify the bin for `c1ccccc1` and reply at your convenience.
Completion: middle band

Prompt: Each compound maps to one class by solvation free energy, 298 K. Which class for `CC(C)CC(C)(C)C` ?
Completion: high band

Prompt: Looking at `C1=CCCCC1` , which class would you pick?
Completion: middle band

Prompt: Each compound maps to one class by solvation free energy, 298 K. Which class for `CC(C)(C)Cl` ?
Completion: middle band

Prompt: Which bin should I file `CCCCCCCCCCCCc1ccccc1` under?
Completion: low band

Prompt: # bin label for `CCCO`
Completion: low band

Prompt: Categorize the following entry: `Cc1ccccc1C`
Completion: low band

Prompt: Into which category would you place `C=CCCCCC` ?
Completion: middle band

Prompt: Assign a category based on measured solvation free energy, 298 K for `CC(C)CO` and give only the class name.
Completion: low band
